assayed-system: human importin α7 ΔIBB (human)
Sequence (chain, as listed by the source mutant): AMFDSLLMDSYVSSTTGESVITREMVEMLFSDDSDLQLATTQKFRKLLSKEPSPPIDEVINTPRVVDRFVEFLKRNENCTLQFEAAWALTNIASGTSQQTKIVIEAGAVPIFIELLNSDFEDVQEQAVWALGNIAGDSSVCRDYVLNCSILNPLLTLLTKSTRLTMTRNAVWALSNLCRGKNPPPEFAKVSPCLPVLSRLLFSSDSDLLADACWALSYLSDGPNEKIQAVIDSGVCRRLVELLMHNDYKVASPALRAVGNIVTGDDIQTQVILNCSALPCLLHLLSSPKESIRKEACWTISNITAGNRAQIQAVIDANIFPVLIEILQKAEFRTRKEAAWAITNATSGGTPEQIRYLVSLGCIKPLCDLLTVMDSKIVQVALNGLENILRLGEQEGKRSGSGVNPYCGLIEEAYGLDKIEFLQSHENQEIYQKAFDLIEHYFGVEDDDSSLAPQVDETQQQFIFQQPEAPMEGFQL
procedure-details: FP
Where no end group is shown, it is not given here. The star is where a group is joined. FITC = O=C1OC2(c3ccc(O)cc3Oc3cc(O)ccc32)c2ccc(NC(=S)*)cc21; Ahx = NCCCCCC(=O)O
observed-property: Kd (nM)
Report the figure in nM without appending any unit label.

INPUT: Quick one: give measured Kd for {FITC-Ahx}-IAEYKRRHNIGSDGLPNKRRRCLF [BSB PyV-LTA;NLS peptide (Black Sea Bass polyomavirus large tumor antigen residues 660-683)]
OUTPUT: 2

Data origin, for the record: paper doi:10.1101/2025.05.20.655083
